Target: UniProt P61964
Assay: Surface Plasmon Resonance (SPR) assay, KD and residence time
Assay type: binding
Conditions: surface plasmon resonance (SPR); read-out: WDR5 binding affinity (KD)
Give measured log10(Kd) for each item. Keep answers brief.
Note the log scale: values are log10 of Kd expressed in nM.

Summary line: CC1CN(c2ccc(-c3cc(NC(=O)c4c[nH]c(=O)cc4C(F)F)c(N4C[C@@H](C)N(C)[C@@H](C)C4)cc3F)cn2)CCO1 (stereo in doubt) [Example 510] , UniProt P61964, reported log10(Kd) = -0.21

Summary line: C[C@@H]1CN(c2cc(F)c(-c3cnc(N4CCC(C)(O)CC4)nc3)cc2NC(=O)c2ccc(F)cc2C(F)(F)F)C[C@H](C)N1C [Example 636] , UniProt P61964, reported log10(Kd) = 0.15

Summary line: C[C@@H]1CN(c2cc(F)c(-c3cc(F)c(C(=O)N(C)C4CCCC4)c(F)c3)cc2NC(=O)c2c[nH]c(=O)cc2C(F)(F)F)C[C@H](C)N1C [Example 761] , UniProt P61964, reported log10(Kd) = 0.30

Summary line: C[C@@H]1CN(c2cc(F)c(-c3ncc(C(=O)NCC4CC4)s3)cc2NC(=O)c2c[nH]c(=O)cc2C(F)(F)F)C[C@H](C)N1C [Example 496] , UniProt P61964, reported log10(Kd) = 0.48

Summary line: C[C@@H]1CN(c2ccc(-c3cc(NC(=O)c4c[nH]c(=O)cc4C(F)F)c(N4C[C@@H](C)N(C)[C@@H](C)C4)cc3F)cn2)CCO1 [Example 508] , UniProt P61964, reported log10(Kd) = 0.42

Summary line: C[C@@H]1CN(c2cc(F)c(-c3cc(F)c(C(=O)N(C)C4CCCCC4)c(F)c3)cc2NC(=O)c2c[nH]c(=O)cc2C(F)(F)F)C[C@H](C)N1C [Example 760] , UniProt P61964, reported log10(Kd) = 0.30

Summary line: CC1CN(c2cc(F)c(-c3cnc(N4CCN(C5CC5)CC4)nc3)cc2NC(=O)c2ccc(F)cc2C(F)(F)F)CCN1C (stereo in doubt) [Example 435] , UniProt P61964, reported log10(Kd) = 0.17

Summary line: C[C@@H]1CN(c2cc(F)c(-c3nc(C(=O)N4CCN(C)CC4)cs3)cc2NC(=O)c2c[nH]c(=O)cc2C(F)(F)F)C[C@H](C)N1C [Example 487] , UniProt P61964, reported log10(Kd) = 0.45

Summary line: CC1CN(c2cc(F)c(-c3cccc(N4CCOCC4)n3)cc2NC(=O)c2cn(C)c(=O)cc2C(F)F)CCN1C (stereo in doubt) [Example 672] , UniProt P61964, reported log10(Kd) = 0.70

Summary line: CN(CC1CC1)[C@@H]1CCN(c2cc(F)c(-c3cnc(N4CCOCC4)nc3)cc2NC(=O)c2cn(C)c(=O)cc2C(F)(F)F)C1 [Example 587] , UniProt P61964, reported log10(Kd) = 2.40

Summary line: CC(C)OC(=O)N1CCC=C(c2cc(NC(=O)c3c[nH]c(=O)cc3C(F)(F)F)c(N3C[C@@H](C)N(C)[C@@H](C)C3)cc2F)CC1 [Example 674] , UniProt P61964, reported log10(Kd) = 0.69

Summary line: CC(C)N1CCN(c2ncc(-c3cc(NC(=O)c4cn(C)c(=O)cc4C(F)(F)F)c(N4C[C@@H](C)N(C)[C@@H](C)C4)cc3F)cn2)CC1 [Example 661] , UniProt P61964, reported log10(Kd) = 0.51

Summary line: C[C@@H]1CN(c2cc(F)c(-c3cc(C(=O)NC(C)(C)CC(C)(C)C)c(F)cc3F)cc2NC(=O)c2c[nH]c(=O)cc2C(F)F)C[C@H](C)N1C [Example 627] , UniProt P61964, reported log10(Kd) = 1.37

Summary line: C[C@@H]1CN(c2ncc(-c3cc(NC(=O)c4cn(C)c(=O)cc4C(F)(F)F)c(N4CCN(C)[C@@H](C)C4)cc3F)cn2)CCO1 [Example 544] , UniProt P61964, reported log10(Kd) = 0.26

Summary line: CC1CN(c2cc(F)c(-c3cnn(CCN4CCOCC4)c3)cc2NC(=O)c2cn(C)c(=O)cc2C(F)F)CCN1C (stereo in doubt) [Example 715] , UniProt P61964, reported log10(Kd) = 1.04

Summary line: C[C@@H]1CN(c2cc(F)c(C3=CCCN(c4ncc(C#N)s4)C3)cc2NC(=O)c2c[nH]c(=O)cc2C(F)F)C[C@H](C)N1C [Example 687] , UniProt P61964, reported log10(Kd) = 0.26

Summary line: C[C@@H]1CN(c2ncc(-c3cc(NC(=O)c4c[nH]c(=O)cc4C(F)(F)F)c(N4CCC(N(C)C)C4)cc3F)cn2)C[C@H](C)O1 (stereo in doubt) [Example 417] , UniProt P61964, reported log10(Kd) = 0.15

Summary line: CC(C)OC(=O)N1CCC=C(c2cc(NC(=O)c3c[nH]c(=O)cc3C(F)F)c(N3C[C@@H](C)N(C)[C@@H](C)C3)cc2F)C1 [Example 725] , UniProt P61964, reported log10(Kd) = 0.20

Summary line: CCN(C)C1CCN(c2cc(F)c(-c3cnc(N4C[C@@H](C)O[C@@H](C)C4)nc3)cc2NC(=O)c2c[nH]c(=O)cc2C(F)(F)F)C1 (stereo in doubt) [Example 418] , UniProt P61964, reported log10(Kd) = 0.02

Summary line: C[C@@H]1CN(c2cc(F)c(-c3cnc(N4CCOC(C)(C)C4)nc3)cc2NC(=O)c2cn(C)c(=O)cc2C(F)(F)F)C[C@H](C)N1C [Example 662] , UniProt P61964, reported log10(Kd) = 0.36

Summary line: C[C@@H]1CN(c2cc(F)c(C3=CCN(C(=O)c4cnccn4)CC3)cc2NC(=O)c2c[nH]c(=O)cc2C(F)(F)F)C[C@H](C)N1C [Example 573] , UniProt P61964, reported log10(Kd) = 0.34

Summary line: CC1CN(c2cc(F)c(-c3cccc(N4CCNCC4)n3)cc2NC(=O)c2c[nH]c(=O)cc2C(F)(F)F)CCN1C (stereo in doubt) [Example 742] , UniProt P61964, reported log10(Kd) = 0.46

Summary line: C[C@@H]1CN(c2cc(F)c(-c3ncc(C(=O)N4CCOCC4)s3)cc2NC(=O)c2c[nH]c(=O)cc2C(F)(F)F)C[C@H](C)N1C [Example 500] , UniProt P61964, reported log10(Kd) = 0.27
